Attribution: the Deep4Chem optical property database

EXPERIMENT_DESCRIPTION: solvent given as SMILES
MEASUREMENT_CONDITIONS: in c1ccccc1
RECORDED_ENDPOINT: absorption maximum (nm)
Your answer should be a plain number; it is taken to be in nm.

In the examples that follow, each entry is paired with its recorded absorption maximum.
[
  {
    "SMILES_NOTATION": "COc1ccc(-c2nc3c(ccc4ccccc43)oc2=O)cc1",
    "RECORDED_ENDPOINT": "absorption maximum",
    "UNIT_INFO": "nm",
    "DATA_VALUE": 410
  },
  {
    "SMILES_NOTATION": "CNc1ccc2c(c1)C(=O)c1ccccc1-2",
    "RECORDED_ENDPOINT": "absorption maximum",
    "UNIT_INFO": "nm",
    "DATA_VALUE": 491
  },
  {
    "SMILES_NOTATION": "Cc1cc2ccc(-c3cccc4cccc(-c5ccc6cc(C)c(=O)oc6c5)c34)cc2oc1=O",
    "RECORDED_ENDPOINT": "absorption maximum",
    "UNIT_INFO": "nm",
    "DATA_VALUE": 324
  },
  {
    "SMILES_NOTATION": "CC(C)[Si]1(C(C)C)c2cc(C#N)ccc2-c2ccc(N(c3ccccc3)c3ccccc3)cc21",
    "RECORDED_ENDPOINT": "absorption maximum",
    "UNIT_INFO": "nm",
    "DATA_VALUE": 389
  },
  {
    "SMILES_NOTATION": "Cc1nc2c(ccc3ccccc32)oc1=O",
    "RECORDED_ENDPOINT": "absorption maximum",
    "UNIT_INFO": "nm",
    "DATA_VALUE": 364
  },
  {
    "SMILES_NOTATION": "O=c1oc2ccc3ccc(O)cc3c2nc1-c1ccccc1",
    "RECORDED_ENDPOINT": "absorption maximum",
    "UNIT_INFO": "nm",
    "DATA_VALUE": 406
  },
  {
    "SMILES_NOTATION": "CC(C)(C)c1cc2ccc3cc(C(C)(C)C)cc4c3c2c(c1)c(=O)n1c4nc2c3cc(C(C)(C)C)cc4ccc5cc(C(C)(C)C)cc(c5c43)c21",
    "RECORDED_ENDPOINT": "absorption maximum",
    "UNIT_INFO": "nm",
    "DATA_VALUE": 395
  }
]

Would you kindly look at the next entry?
Lookup result for CCCCCCCCCCCCCCCC[n+]1ccc(/C=C/c2ccc(N(C)C)cc2)cc1 ; measured absorption maximum: 476
